Assay: recombinant barcode read abundance after kanamycin selection (control-corrected) (log10(CPM+1)); higher = more efficient recombination; sequences stand for … in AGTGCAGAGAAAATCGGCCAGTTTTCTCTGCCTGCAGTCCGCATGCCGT…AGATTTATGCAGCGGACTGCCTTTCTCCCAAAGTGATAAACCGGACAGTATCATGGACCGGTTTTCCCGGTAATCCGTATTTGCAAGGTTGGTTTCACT; site = the 11-nt target
Answer each item with its documented recombinant barcode read abundance (log10).
One number for each entry.

Known recombinant barcode read abundance (log10) results, listed for orientation:
# biosequence, recorded result
rows = [
    ("ACCTACTCTTGGGTTCTAACCTGTTGCCT (site ACCTACTCTAG)", 1.36),
    ("GAGCGCTCTTGGGTTCTAACCTGTTGCTG (site GAGCGCTCTCA)", 1.05),
    ("CCGTGGACTTGGGTTCTAACCTGTTGCCA (site CCGTGGACTTG)", 0.42),
    ("AAACCACCTTGGGTTCTAACCTGTTGCCT (site ACACCACCTAG)", 0.257),
    ("ATGCGAGCTTGGGTTCTAACCTGTTGCAG (site ATGCGAGCTCT)", 1.87),
]

Please give recombinant barcode read abundance (log10), item by item, for the list that follows.
1. ACCCTCCCTTGGGTTCTAACCTGTTGCTA (site ACCCTCCCTTA)
2. AGCGAAGCTTGGGTTCTAACCTGTTGCCT (site AGCGAGGCTAG)

Given back:
1. 2.47
2. 0.3

# map each sequence to its recombinant barcode read abundance (log10)
1. GCAGGGACTTGGGTTCTAACCTGTTGCCT (site GAAGGGACTAG)
2. CAACGAGCTTGGGTTCTAACCTGTTGCCG (site CATCGAGCTCG)

Given back:
1. 0.56
2. 0.218

Give one value of recombinant barcode read abundance (log10) per listed sequence.
1. TAGGTGTCTTGGGTTCTAACCTGTTGCCT (site TATGTGTCTAG)
2. ACGGTGACTTGGGTTCTAACCTGTTGCCT (site TCGGTGACTAG)
3. CTCGCAGCTTGGGTTCTAACCTGTTGCGG (site CTCGCAGCTCC)
4. ACGATTCCTTGGGTTCTAACCTGTTGCCT (site ATGATTCCTAG)
5. GATAGACCTTGGGTTCTAACCTGTTGCCT (site GATAGACCTAG)
6. TAGAATCCTTGGGTTCTAACCTGTTGCAC (site TAGAATCCTCT)
7. GGGGCGACTTGGGTTCTAACCTGTTGCCT (site GGGGCGCCTAG)
8. CTAGGAGCTTGGGTTCTAACCTGTTGCTG (site CTAGGAGCTTA)

Given back:
1. 0.0655
2. 0.0684
3. 0.313
4. 0.0978
5. 1.57
6. 0.152
7. 0.0568
8. 0.073

Dear colleague, could you send me recombinant barcode read abundance (log10) for each of the items below? Thanks.
1. GAGGCTCCTTGGGTTCTAACCTGTTGCCG (site GAGGCTCCTTG)
2. AGGGCAGCTTGGGTTCTAACCTGTTGCCT (site AGGGTAGCTAG)
3. AGTAGTGCTTGGGTTCTAACCTGTTGCCT (site ATTAGTGCTAG)
4. CCTTGGGCTTGGGTTCTAACCTGTTGCTT (site CCTTGGGCTAA)
5. TTACGAGCTTGGGTTCTAACCTGTTGCGG (site TTACGCGCTCC)

Given back:
1: 0.238; 2: 0.0905; 3: 0.0347; 4: 0.011; 5: 0.176

I have 8 sequences here; please give me recombinant barcode read abundance (log10) for each one.
1. CTATTATCTTGGGTTCTAACCTGTTGCCT (site CTATTATCTAG)
2. GAAGTCCCTTGGGTTCTAACCTGTTGCCT (site CAAGTCCCTAG)
3. GCCCGATCTTGGGTTCTAACCTGTTGCCT (site GCCCGATCTAG)
4. TAGAACACTTGGGTTCTAACCTGTTGCTA (site TAGAACACTCA)
5. TCCAGTCCTTGGGTTCTAACCTGTTGCTG (site AGCAGTCCTCA)
6. ACGGGTCCTTGGGTTCTAACCTGTTGCAG (site GGCAAGGCTAG)
7. GCTCTCCCTTGGGTTCTAACCTGTTGCCT (site GCCCTCCCTAG)
8. GCCCTGCCTTGGGTTCTAACCTGTTGCGT (site GCCCTGCCTAC)

Given back:
0.935
0.848
1.42
0.109
0.0888
0.0641
0.388
2.62

For each of the items listed, what is its recombinant barcode read abundance (log10)?
1. CTGCCCTCTTGGGTTCTAACCTGTTGCCT (site CGGCCCTCTAG)
2. GTATGGACTTGGGTTCTAACCTGTTGCAA (site CATCAAGCTAG)
3. AGCCACTCTTGGGTTCTAACCTGTTGCCT (site AGCCACCCTAG)
4. CTAAGATCTTGGGTTCTAACCTGTTGCCT (site CCAAGATCTAG)
5. TTAAGCCCTTGGGTTCTAACCTGTTGCCT (site TTAAGCCCTAG)
6. TAGCTCCCTTGGGTTCTAACCTGTTGCCA (site TAGCTCCCTTG)
7. ACGCTAGCTTGGGTTCTAACCTGTTGCCT (site ACGCTAGCTAG)
8. AGTATCCCTTGGGTTCTAACCTGTTGCCG (site GTCTCATCTAT)

Given back:
1: 0.0113; 2: 0.138; 3: 0.149; 4: 0.119; 5: 1.41; 6: 0.662; 7: 0.357; 8: 0.2

// each sequence listed below needs its recombinant barcode read abundance (log10)
1. TTAAGCCCTTGGGTTCTAACCTGTTGCCT (site TTAAGACCTAG)
2. CACAAGTCTTGGGTTCTAACCTGTTGCCG (site CACAAGTCTCG)
3. GCACTCCCTTGGGTTCTAACCTGTTGCCT (site GCCCTCCCTAG)
4. TACTACCCTTGGGTTCTAACCTGTTGCGT (site TGCCACCCTAC)

Given back:
1. 0.288
2. 0.657
3. 0.0585
4. 1.28

---

Test: recombinant UMI read abundance after kanamycin selection (control-corrected) (log10(CPM+1)); higher = more efficient recombination; extreme values may be limits of the assay; sequences stand for … in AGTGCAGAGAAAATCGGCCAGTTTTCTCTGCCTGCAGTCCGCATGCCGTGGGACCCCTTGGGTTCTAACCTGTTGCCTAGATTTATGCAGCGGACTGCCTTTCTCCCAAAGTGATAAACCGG…AGGTTGGTTTCACT; site = the 11-nt donor
What recombinant UMI read abundance (log10) was measured for each of the following?
One number for each entry.

Past entries and their recorded results:
# biosequence, recorded result
data = [
    ("CATGTGTCATGGACCGGTTTTCCCGGTAATCCGTATTTGAC (site CATGTGTCTGT)", 0.602),
    ("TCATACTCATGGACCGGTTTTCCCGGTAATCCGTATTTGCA (site TCAAACTCTTG)", 1.19),
    ("ATAGTTCCATGGACCGGTTTTCCCGGTAATCCGTATTTGGA (site ATAGTTCCTTC)", 0.223),
    ("TTCATTACATGGACCGGTTTTCCCGGTAATCCGTATTTGAT (site TTCATTACTAT)", 0),
    ("TTAGGTTCATGGACCGGTTTTCCCGGTAATCCGTATTTGGC (site TTAGGTTCTGC)", 2.53),
    ("TATTTGGCATGGACCGGTTTTCCCGGTAATCCGTATTTGTC (site TATTTGGCTAA)", 0.0189),
    ("GCGACAACATGGACCGGTTTTCCCGGTAATCCGTATTTGCT (site GCGATAACTAG)", 0.37),
    ("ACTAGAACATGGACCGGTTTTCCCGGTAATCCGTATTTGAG (site ATTAGAACTCT)", 1.34),
]

For every item below, please supply its recombinant UMI read abundance (log10).
1. AGAACAACATGGACCGGTTTTCCCGGTAATCCGTATTTGTG (site AGAACAACTCA)
2. TCATCTACATGGACCGGTTTTCCCGGTAATCCGTATTTGTG (site ACATCTACTCA)

Given back:
1. 1.29
2. 0.0432

I would be grateful if you could provide recombinant UMI read abundance (log10) for each of the following entries.
1. CTGCCACCATGGACCGGTTTTCCCGGTAATCCGTATTTGCT (site CTGCCACCTAG)
2. AGGTACCCATGGACCGGTTTTCCCGGTAATCCGTATTTGTG (site AGGTGCCCTCA)

Given back:
[0.00511, 0.0127]

Batch of 4 sequences: report recombinant UMI read abundance (log10) for each.
1. ATGTCGGCATGGACCGGTTTTCCCGGTAATCCGTATTTGGC (site ATGTAGGCTGC)
2. TGGCCGTCATGGACCGGTTTTCCCGGTAATCCGTATTTGAG (site TGGCCGTCTCT)
3. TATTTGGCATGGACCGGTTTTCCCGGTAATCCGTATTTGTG (site TATTGGGCTCA)
4. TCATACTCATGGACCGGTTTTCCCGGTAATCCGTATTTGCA (site TCATACCCTTG)

Given back:
1. 0.445
2. 0.297
3. 0.00686
4. 0.303
